The measured values listed here are drawn from patent US10336762B2.

system: TNFα; experiment: cells; type: cell-based, human; conditions: Homo sapiens, Monocyte, LPS-stimulated human monocytes, TNFα content; read-out: EC50 TNF
Response field label: string, one of Criterion met (EC50 strictly below 0.04 µM) or Criterion not met.

1) CC(C)(O)[C@H](F)CNC(=O)c1cnc(-c2ccc3cc(C#N)cnn23)cc1Nc1ccc(-c2cn[nH]c2)nc1
Criterion not met
2) CC(C)(O)[C@H](F)CNC(=O)c1cnc(-c2ccc3cc(C#N)cnn23)cc1N[C@H]1C[C@H](CN)C1
Criterion not met
3) CC(=O)NC[C@H]1C[C@H](Nc2cc(-c3ccc4cc(C#N)cnn34)ncc2C(=O)NC[C@@H](F)C(C)(C)O)C1
Criterion not met
4) CNC(=O)OC[C@H]1C[C@H](Nc2cc(-c3ccc4cc(C#N)cnn34)ncc2C(=O)NC[C@@H](F)C(C)(C)O)C1
Criterion met
5) COC1(C)CN(C(=O)C23CCC(Nc4cc(-c5ccc6cc(C#N)cnn56)ncc4C(=O)NC[C@@H](F)C(C)(C)O)(CC2)CC3)C1
Criterion not met
6) CC(C)(O)[C@H](F)CNC(=O)c1cnc(-c2ccc3cc(C#N)cnn23)cc1N[C@@H]1CC[C@@H](N)C1
Criterion not met

stdin: For CC(C)(O)[C@H](F)CNC(=O)c1cnc(-c2ccc3cc(C#N)cnn23)cc1N[C@H]1CCN(C2COC2)C1 , is the recorded EC50 below the cut-off of 0.04 µM?
stdout: Criterion not met

stdin: Given the entry CC(C)(O)[C@H](F)CNC(=O)c1cnc(-c2ccc3cc(C#N)cnn23)cc1Nc1ccc2[nH]ncc2c1 , would its reported EC50 be below 0.04 µM?
stdout: Criterion met

stdin: Please check: EC50 for N#CCNC(=O)c1cnc(-c2ccc3cc(C#N)cnn23)cc1NC12CCC(O)(CC1)CC2 , strictly under 0.04 µM or not?
stdout: Criterion met

stdin: Strictly below 0.04 µM in EC50? N#CCNC(=O)c1cnc(-c2ccc3cc(C#N)cnn23)cc1NC12CCC(C(=O)N3CC(F)(F)C3)(CC1)CC2
stdout: Criterion met

stdin: Please indicate whether the reported EC50 of CC(C)(O)[C@H](F)CNC(=O)c1cnc(-c2ccc3cc(C#N)cnn23)cc1N[C@H]1C[C@H](CNC(=O)[C@@H]2CC2(F)F)C1 is strictly below 0.04 µM.
stdout: Criterion met

stdin: Consider CC(C)C(=O)N[C@H]1CC[C@H](Nc2cc(-c3ccc4cc(C#N)cnn34)ncc2C(=O)NC[C@@H](F)C(C)(C)O)CC1 . Does its EC50 lie strictly below 0.04 µM?
stdout: Criterion not met

stdin: # check: EC50 < 0.04 µM for COC(=O)N1Cc2ccc(Nc3cc(-c4ccc5cc(C#N)cnn45)ncc3C(=O)NC[C@@H](F)C(C)(C)O)cc2C1
stdout: Criterion not met

----------
molecular target: IRAK4 enzyme (Homo sapiens (Human)); assay: biochemical; type: biochemical; details: IRAK4 enzyme, TR-FRET (HTRF), 500 μM ATP
Sequence (Q9NWZ3 whole entry): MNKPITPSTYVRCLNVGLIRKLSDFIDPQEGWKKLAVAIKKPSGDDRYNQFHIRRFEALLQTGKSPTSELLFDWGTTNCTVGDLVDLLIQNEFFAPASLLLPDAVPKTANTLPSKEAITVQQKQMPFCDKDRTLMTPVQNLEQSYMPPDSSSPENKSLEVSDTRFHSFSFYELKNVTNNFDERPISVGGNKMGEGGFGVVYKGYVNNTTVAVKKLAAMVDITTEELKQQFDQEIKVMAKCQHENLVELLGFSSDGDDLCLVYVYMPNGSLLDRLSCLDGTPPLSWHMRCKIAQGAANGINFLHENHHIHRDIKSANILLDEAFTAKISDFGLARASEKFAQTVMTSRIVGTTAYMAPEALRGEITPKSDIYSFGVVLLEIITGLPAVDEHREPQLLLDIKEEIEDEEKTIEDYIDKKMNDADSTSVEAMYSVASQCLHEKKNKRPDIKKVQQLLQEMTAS
Kindly state log10 of IC50 for each of the entries shown.
Please interpret these as log10 of IC50 where IC50 is in nM.

1) N#Cc1cnn2c(-c3cc(N[C@H]4CCC[C@@H](O)C4)c(C(=O)NC4(C#N)CC4)cn3)ccc2c1
0.30

The following compounds each have a reported value; give each one's log10 of IC50.
1. COC(=O)NC[C@H]1CC[C@H](Nc2cc(-c3ccc4cc(C#N)cnn34)ncc2C(=O)NC[C@@H](F)C(C)(C)O)CC1
2. CNC(=O)c1cnc(-c2ccc3cc(C#N)cnn23)cc1NC12CCC(C(=O)NC3CC3)(CC1)CC2
3. CC1(O)CCCC(Nc2cc(-c3ccc4cc(C#N)cnn34)ncc2C(=O)NC[C@@H](F)C(C)(C)O)C1 (single isomer, unassigned) [Example 528]
4. N#CCNC(=O)c1cnc(-c2ccc3cc(C#N)cnn23)cc1N[C@H]1CCC[C@@H](O)C1
5. COc1cc(Nc2cc(-c3ccc4cc(C#N)cnn34)ncc2C(=O)NC[C@@H](F)C(C)(C)O)ccc1N1CCOCC1

stdout:
0.00
0.30
0.00
0.00
1.00

Each compound below has a recorded value; state its log10 of IC50.
1. CC(C)(O)[C@H](F)CNC(=O)c1cnc(-c2ccc3cc(C#N)cnn23)cc1NC1CCC(C)(N2CCOCC2)CC1 (single isomer, unassigned) [Example 691]
2. CC(C)Nc1cc(-c2ccc3cc(C#N)cnn23)ncc1C(=O)NCC(F)(F)CNC(=O)OC(C)(C)C

stdout:
[0.70, 1.54]
